Entries and their measured GI50 follow.
Tested on: HOP-92
test: Growth inhibition of human HOP92 cells after 48 hrs
Assay type: functional
condition summary: HOP-92, 48 h

Would you please look over these solved cases?
# compound, quantity name, value
measured = [
    ("COC(=O)C(Cc1c[nH]cn1)NC(=O)CNC(=O)CCCn1c(=O)c2c3ccccc3n(C)c2n2nnc(-c3ccccc3)c12 (stereo not drawn)", "GI50", "> 100 µM"),
    ("Cn1c2ccccc2c2c(=O)n(CCCC(=O)N(C(=O)NC3CCCCC3)C3CCCCC3)c3c(-c4ccccc4)nnn3c21", "GI50", "> 100 µM"),
]

Per the record, CCOC(=O)CNC(=O)CCCn1c(=O)c2c3ccccc3n(C)c2n2nnc(-c3ccccc3)c12 has GI50 of > 50.1 µM

---

Tested on: MDA-MB-435
test: Growth inhibition of human MDA-MB435 cells after 48 hrs
Type: functional
condition summary: MDA-MB-435, 48 h
quantity name: GI50

Would you please look over these solved cases?
# molecule, value
measured = [
    ("Cn1c2ccccc2c2c(=O)n(CCCC(=O)N(C(=O)NC3CCCCC3)C3CCCCC3)c3c(-c4ccccc4)nnn3c21", "> 100 µM"),
    ("CCOC(=O)CNC(=O)CCCn1c(=O)c2c3ccccc3n(C)c2n2nnc(-c3ccccc3)c12", "> 50.1 µM"),
]

Kindly review the next molecule as well.
Per the record, COC(=O)C(Cc1c[nH]cn1)NC(=O)CNC(=O)CCCn1c(=O)c2c3ccccc3n(C)c2n2nnc(-c3ccccc3)c12 (stereo not drawn) has GI50 of > 100 µM

---

Entries and their measured GI50 follow.
System: HT-29
test: Growth inhibition of human HT29 cells after 48 hrs
Format: functional
condition summary: HT-29, 48 h

Would you please look over these solved cases?
# compound, GI50
records = [
    ("CCOC(=O)CNC(=O)CCCn1c(=O)c2c3ccccc3n(C)c2n2nnc(-c3ccccc3)c12", "> 50.1 µM"),
    ("Cn1c2ccccc2c2c(=O)n(CCCC(=O)N(C(=O)NC3CCCCC3)C3CCCCC3)c3c(-c4ccccc4)nnn3c21", "> 100 µM"),
]

Kindly review the next compound as well.
The reported HT-29 GI50 of COC(=O)C(Cc1c[nH]cn1)NC(=O)CNC(=O)CCCn1c(=O)c2c3ccccc3n(C)c2n2nnc(-c3ccccc3)c12 (stereo not drawn) is > 100 µM

---

System: NCI-H460
test: Growth inhibition of human NCI-H460 cells after 48 hrs
Format: functional
condition summary: NCI-H460, 48 h
Entries and their measured GI50 follow.

Would you please look over these solved cases?
# molecule, target entity, value
records = [
    ("CCOC(=O)CNC(=O)CCCn1c(=O)c2c3ccccc3n(C)c2n2nnc(-c3ccccc3)c12", "NCI-H460", "> 50.1 µM"),
    ("Cn1c2ccccc2c2c(=O)n(CCCC(=O)N(C(=O)NC3CCCCC3)C3CCCCC3)c3c(-c4ccccc4)nnn3c21", "NCI-H460", "> 100 µM"),
]

The reported NCI-H460 GI50 of COC(=O)C(Cc1c[nH]cn1)NC(=O)CNC(=O)CCCn1c(=O)c2c3ccccc3n(C)c2n2nnc(-c3ccccc3)c12 (stereo not drawn) is > 100 µM

---

Entries and their measured GI50 follow.
Test system: MOLT-4
test: Growth inhibition of human MOLT4 cells after 48 hrs
Format: functional
condition summary: MOLT-4, 48 h

Would you please look over these solved cases?
# molecule, target entity, GI50
records = [
    ("Cn1c2ccccc2c2c(=O)n(CCCC(=O)N(C(=O)NC3CCCCC3)C3CCCCC3)c3c(-c4ccccc4)nnn3c21", "MOLT-4", "> 100 µM"),
    ("COC(=O)C(Cc1c[nH]cn1)NC(=O)CNC(=O)CCCn1c(=O)c2c3ccccc3n(C)c2n2nnc(-c3ccccc3)c12 (stereo not drawn)", "MOLT-4", "> 100 µM"),
]

Per the record, CCOC(=O)CNC(=O)CCCn1c(=O)c2c3ccccc3n(C)c2n2nnc(-c3ccccc3)c12 has GI50 of > 50.1 µM

Values compiled from ChEMBL document CHEMBL1142436.
